- Tested on: UACC-62 melanoma
- protocolDescription: NCI tumour cell line growth inhibition, 48 h
recordedEndpoint: GI50

Please report the recorded GI50 for CN(c1ccccc1)c1c2ccccc2nc2[nH]c3ccccc3c12 .
1500 nM

Name the reported GI50 value associated with the compound CC(C)c1ccc2c(c1)CCC1C2CCCC1(C)NCc1ccccc1 (stereo not drawn)
1960 nM

# input compound: COc1cc(/C=C/C(=O)c2nc3cc(F)ccc3nc2C)cc(OC)c1OC ; wanted: its GI50
5570 nM

###

- System: A549 NSCLC
- protocolDescription: NCI tumour cell line growth inhibition, 48 h
Task for the reader: assign each of the following molecules its reported TGI.

Endpoint output: TGI of CCOC(=O)C1C(NC(N)=O)N(Cc2ccccc2)C(=O)N1Cc1ccccc1 (stereo unspecified) . Value?
> 100 µM

I am curious: what TGI value has been reported for C=CCN1C(=O)NC(=O)/C(=C/c2c3ccccc3cc3ccccc23)C1=O ?
58.2 µM

Find the recorded TGI belonging to N/C(CCSCCSCC/C(N)=N\O)=N\O and report it.
> 100 µM

I'd like to know its TGI. The molecule in question is COc1ccc(NC(=S)c2ccc([N+](=O)[O-])o2)cc1
11.1 µM

For COC(=O)C(C)NP(=O)(OCc1cccc(Cn2cnc3c(N)ncnc32)c1)Oc1ccccc1 (stereo unspecified) , what is its reported TGI?
> 100 µM

// TGI lookup, key: CN(Cc1cccc2ccsc12)/N=C\c1ccc(Cl)cc1
> 100 µM

###

- Tested on: SK-MEL-2 melanoma
- protocolDescription: NCI tumour cell line growth inhibition, 48 h
Binary classification by TGI, with 60 µM as an inclusive lower bound for MET; all other cases are NOT MET.

Is the recorded value of TGI equal to or greater than 60 µM for this compound? S=c1[nH]nc(Cn2c3ccc(Br)cc3c3nc4ccccc4nc32)o1
MET

Item C=CCN(CC=C)Cc1c[nH]c2ccccc12 with TGI of 60 µM or above?
NOT MET

Quick check: does C=CCN1C(=O)NC(=O)/C(=C/c2c3ccccc3cc3ccccc23)C1=O have TGI greater than or equal to 60 µM?
NOT MET

Reported TGI reaches at least 60 µM for CCCCC(C(=O)C(=O)Nc1ccccc1CC)C(=O)C(C)C (stereo unspecified) ?
MET

Textbook exercise: given the entry COc1cc(S(=O)(=O)Nc2nc(-c3ccc(N=Cc4ccccc4O)cc3)cs2)ccc1Cl , state whether its TGI is greater than or equal to 60 µM.
MET

Assess whether reported TGI for COc1ccc2cc3n(c(=O)c2c1)CCc1c-3cc(OC)c(OC)c1OC sits at 60 µM or higher.
MET

hey, is TGI for this one >= 60 µM? Cc1cnc2[nH]c(-c3cccc4ccccc34)cc(=O)c2c1
MET

Item c1ccc(C(NC2=NCCO2)C2CC2)cc1 (stereo unspecified) with TGI of 60 µM or above?
MET

Determine whether measured TGI meets or exceeds 60 µM for N#CCc1nc(-c2cc3ccccc3oc2=O)cs1
MET

Say whether CC(=O)O[C@H]([C@H](OC(C)=O)[C@H](C)OC(C)=O)[C@@H](/C=C/[C@H]1CC=CC(=O)O1)OC(C)=O shows TGI of 60 µM or more.
MET

Reported TGI at or above 60 µM? CN(C)c1ccc(/C=N/N=C(\C#N)[S][Sn]([Cl])([c]2ccccc2)[c]2ccccc2)cc1
NOT MET

API: above_or_equal(metric=TGI, cutoff=60 µM) for item CC(C)(C)n1c(=O)n2c(-c3ccccc3)c(-c3ccccc3)n2c1=O
MET

Please tell me: is the compound CC(=O)O[C@H]1C[C@@H]2[C@@]3(C)CC[C@H]4C[C@@]4(C)[C@@H]3CC[C@@]2(C)C2=CCC3=C(COC3=O)[C@]21C at or over 60 µM in terms of TGI?
MET

Threshold query (TGI >= 60 µM) on Cc1ccc2c(c1C)CC1(Cc3ccc(C)c(C)c3C1=O)C2=O (stereo unspecified)
MET

Threshold query (TGI >= 60 µM) on COC(=O)C1CC2CC1C1C2SC(F)(F)C1(F)F (stereo unspecified)
MET

Item O=C1C(Cl)=CC2(C=C1Cl)CCN=c1c(O)c3c(c(O)c12)=NC=N3 with TGI of 60 µM or above?
MET

Decide: is the reported value of TGI for CN(C)CCNC(=O)c1cccc2c1nc(-c1cccnc1)c1ccccc12 equal to or greater than 60 µM?
NOT MET

Reported TGI at or above 60 µM? COC(=O)c1ccc(CCC2=CC(=O)C=CC2=O)cc1
NOT MET

###

- Test system: NCI-H23 lung
- protocolDescription: NCI tumour cell line growth inhibition, 48 h
Hi there, I'd appreciate the recorded TGI for every entry that follows.
Dear colleague, please return just the value in µM, with no unit written.

Dear colleague, I am looking for the recorded TGI of the following compound: C/C(=C\c1csc(C)n1)[C@@H]1C[C@@H]2O[C@]2(C)CCC[C@H](C)[C@H](O)[C@@H](C)C(=O)C(C)(C)[C@@H](O)CC(=O)N1
0.000412

Fill in the blank: the reported TGI of O=C1C(Cl)=CC2(C=C1Cl)CCN=c1c(O)c3c(c(O)c12)=NC=N3 is ____.
82.5

Query (compound): CC1(C)CC2=NO[Se]3=C2C(=NO3)C1 ; field requested: TGI
5.65

###

- System: CAKI-1 renal
- protocolDescription: NCI tumour cell line growth inhibition, 48 h; in the data active = GI50 below about 0.43 µM; inactive = the rest
// one of active, inactive, no free text

How did this test come out for COc1ccc(-c2c(Nc3ccccn3)nc3c(C4=CCCCC4)c(-c4ccccc4)[nH]n3c2=O)cc1 ?
inactive

Hello, I am checking results. What call was entered for O=[N+]([O-])c1ccc(N/N=C\c2cc(Br)ccc2O)nc1 ?
inactive

Which result was noted for this compound in the test: CN(C)CCCC1(c2ccc(F)cc2)OCc2cc(-c3csc4ccccc34)ccc21 (centres undefined)
inactive

Answer briefly: the call reported for O=C(CCN1CCOCC1)Nc1ccc(Cn2nnc3c2C(=O)c2nnn(Cc4ccc(NC(=O)CCN5CCOCC5)cc4)c2C3=O)cc1 in this assay.
inactive

Identify the outcome logged in this assay for the compound shown: CN(C)[C@@H]1C(=O)C(C(=O)NCc2nc3[nH]cnc(=S)c3[nH]2)=C(O)[C@@]2(O)C(=O)C3=C(O)c4c(O)cccc4[C@@](C)(O)[C@H]3C[C@@H]12
inactive

Recorded test outcome, item C=CCN(CC=C)Cc1c[nH]c2ccccc12
inactive

Which outcome was entered for the compound CN(c1ccccc1)c1c2ccccc2nc2[nH]c3ccccc3c12 in this test?
inactive

What was the test verdict on CC1=C(C(=O)Nc2ccc3[nH]ncc3c2)C(c2ccc(F)cc2)N=C(c2ccc(C(F)(F)F)nc2)N1 (centres undefined) ?
inactive

What outcome does the record of this test show for COc1cc(/C=C/C(=O)c2nc3cc(F)ccc3nc2C)cc(OC)c1OC ?
inactive

Lab log entry: CCOC(=O)c1c(Cl)c2c(n1Cc1ccccc1)-c1oncc1CCC2 — outcome as called in the assay?
inactive

Please let me know the test result on file for COC(=O)C(C)NP(=O)(OCc1cccc(Cn2cnc3c(N)ncnc32)c1)Oc1ccccc1 (centres undefined) .
inactive

Returns: the outcome recorded for Cc1ccc(-c2nc([P+](c3ccccc3)(c3ccccc3)c3ccccc3)c(N3CCOCC3)o2)cc1 in this assay.
inactive

Entry CNCc1cccc2c1OCCOCCOCCNS(=O)(=O)c1ccc(cc1)-c1cnc(N)c(n1)C(=O)N2 : call = ?
inactive

Test call for this compound, please: c1cc(OCCCCCOc2cccc(-c3nc4ccccc4[nH]3)c2)cc(-c2nc3ccccc3[nH]2)c1
inactive

# fetch the recorded call for Cn1cc(-c2ccc3c(c2)ncn3-c2cc(NS(=O)(=O)C3CC3)cc(-c3ccc(F)cc3F)c2)cn1 here
inactive

Recorded test outcome, item COc1ccc(-n2c(=O)c3ccccc3n(Cc3ccc(C(=O)NO)cc3)c2=O)cc1
inactive

Which outcome was entered for the compound CN(C)c1ccc(/C=N/N=C(\C#N)[S][Sn]([Cl])([c]2ccccc2)[c]2ccccc2)cc1 in this test?
inactive

Tell me the recorded outcome of this test for C/C(=C\c1csc(C)n1)[C@@H]1C[C@@H]2O[C@]2(C)CCC[C@H](C)[C@H](O)[C@@H](C)C(=O)C(C)(C)[C@@H](O)CC(=O)N1 .
active

I'd appreciate the recorded outcome for COc1cc2c(cc1OCCN1CCN(CCN3C(=O)c4cccc5cccc(c45)C3=O)CC1)N=C[C@@H]1CCCN1C2=O from this test.
inactive

###

- Tested on: OVCAR-3 ovarian
- protocolDescription: NCI tumour cell line growth inhibition, 48 h
So I've got a bunch of compounds here, and I need their TGI values.
Provide the reading as a plain figure in µM.

Consider the compound shown here: COc1cc2c(cc1C)NC(=O)/C2=C\c1ccc(Oc2ccccc2)cc1 What is its recorded TGI?
34.3

State the recorded TGI for this entry: COc1cc2c(Oc3ccc(-c4cnc(Nc5ccc(F)cc5)n(C)c4=O)cc3F)ccnc2cc1OCCCN1CCOCC1
3.15

Give its TGI value. Item: COc1ccc(Cn2c(Br)c3c(c2-c2cc(OC)c(OC)c(OC)c2)CCc2sc(N)nc2-3)cc1
9.61

What value of measured TGI is listed for Nc1nccc(NCC2(CO)CC(CCc3ccccc3)C2)n1 (stereo unspecified) ?
38.9

Which measured TGI value corresponds to CCOC(=O)c1c(C)n(-c2ccc(C)cc2)c(=O)c2ccccc2c(=O)c2c(=O)ccc(=O)c1=2 ?
29.8

Entry under review: O=[N+]([O-])c1ccc(N/N=C\c2cc(Br)ccc2O)nc1 . Reported TGI?
2.3

I am curious: what TGI value has been reported for O=c1c(-c2ccccc2)c(SCCCN2CCCCC2)n(-c2ccccc2)c(=S)n1-c1ccccc1 ?
34.3

So what does the record say about TGI for CC[C@]12C=CCN3CC[C@@]4(c5ccc(OC)cc5N(C)[C@H]4[C@@](O)(C(=O)OC)[C@@H]1OC(=O)CCCN1CCN(CCCC(=O)O[C@@H]4[C@]5(CC)C=CCN6CC[C@@]7(c8ccc(OC)cc8N(C)[C@H]7[C@@]4(O)C(=O)OC)[C@@H]65)CC1)[C@@H]32 ?
2.82

What measured TGI goes with CCCCCCCCCCCCOC1C(C(COC2OC(C(O)CO)C3OC(C)(C)OC23)OC(=O)Nc2ccccc2)OC2OC(C)(C)OC21 (stereo unspecified) ?
19.6

Quick one: TGI for CN(c1ccccc1)c1c2ccccc2nc2[nH]c3ccccc3c12 ?
6.01

Form field: reported TGI of O=C(CCN1CCOCC1)Nc1ccc(Cn2nnc3c2C(=O)c2nnn(Cc4ccc(NC(=O)CCN5CCOCC5)cc4)c2C3=O)cc1
1.39

Entry O=C(Nc1ccc(Cl)cc1Cl)C1C(=O)OC2(CCCCC2)OC1=O has what TGI?
16.1

Dear colleague, I am looking for the recorded TGI of the following compound: CC1C(OS(=O)(=O)c2ccc3[nH]c(=S)sc3c2)CC2C3(C)CCC2(C(C)C(=O)O)C(O)C13 (stereo unspecified)
42.5

Report TGI for O=C(O)CSc1cc(NS(=O)(=O)c2ccc(Br)cc2)c2ccccc2c1O please.
9.09

Given the entry O=C1[C@H](Cc2ccc(O)cc2)N2C(=O)CCN(C(=O)NCc3ccccc3)[C@H]2CN1Cc1cccc2ccccc12 , report its measured TGI.
8.91

Source of measurements: PubChem BioAssay (NCI)
